TEST_TARGET: T1, full-length Ste2p H94Y (Saccharomyces cerevisiae, UniProt D6VTK4 1-431, H94Y)
T1 sequence (looked up): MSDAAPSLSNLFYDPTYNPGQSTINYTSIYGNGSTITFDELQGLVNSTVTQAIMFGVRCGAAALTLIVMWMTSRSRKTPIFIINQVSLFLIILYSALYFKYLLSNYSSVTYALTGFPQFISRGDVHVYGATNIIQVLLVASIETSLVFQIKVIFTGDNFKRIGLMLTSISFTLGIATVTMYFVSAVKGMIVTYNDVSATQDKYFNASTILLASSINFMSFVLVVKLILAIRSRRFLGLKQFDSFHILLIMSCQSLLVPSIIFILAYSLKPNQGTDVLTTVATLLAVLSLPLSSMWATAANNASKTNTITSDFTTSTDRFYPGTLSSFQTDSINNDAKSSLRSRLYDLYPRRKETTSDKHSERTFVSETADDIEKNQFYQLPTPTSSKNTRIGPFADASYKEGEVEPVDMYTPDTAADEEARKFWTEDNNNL
TEST_METHOD_NOTES: flow cytometry on cells

BINDER	Kd
WHWLQLKPGQPMY (NBD (7-nitrobenz-2-oxa-1,3-diazol-4-yl) conjugated to the lysine at position 7; norleucine at position 12 in place of methionine) [[K^7(NBD),Nle^12] α-factor]	5.2 nM

Recorded values, source paper PMC4405178.
